# System: MDA-N
# ASSAY_INFO: NCI tumour cell line growth inhibition, 48 h
Active and inactive are the calls of the source. No stated cut-off is given here; in the data, active = GI50 up to about 1.1 µM and inactive = higher. Where a SMILES comes first, the peptide text is derived from it. The star is where a group is joined. Boc = CC(C)(C)OC(=O)*; OSu = O=C1CCC(=O)N1O*
Outcomes: active, inactive

>>> class_name("COc1ccc2cc(C(=O)CCC(=O)O)ccc2c1")
"inactive"
>>> class_name("C=C1C(=O)OC2CC(C)C3CC(O)OC(OCC)C3(C)CC12 (stereo unspecified)")
"inactive"
>>> class_name("CC(NC(=O)C(NC(=O)OC(C)(C)C)C(C)C)C(=O)NCC(=O)ON1C(=O)CCC1=O (stereo not drawn) (Boc-Val-Ala-Gly-OSu; configuration not given here)")
"inactive"
>>> class_name("C[N+](C)(N)CCC[N+](C)(C)N")
"inactive"
>>> class_name("N#Cc1cc2c(n(C3OC(CO)C(O)C(O)C3O)c1=S)CCCCC2 (stereo unspecified)")
"inactive"
>>> class_name("Cc1cc(C)nc(NS(=O)(=O)c2ccc(NC(=O)c3ccc4nc5ccccc5c(Nc5ccc(S(=O)(=O)Nc6nc(C)cc(C)n6)cc5)c4c3)cc2)n1")
"inactive"
>>> class_name("O=c1c(F)cn2c(=O)n1CCCCCCCn1c(=O)c(F)cn(c1=O)CCCCCCC2")
"inactive"
>>> class_name("COc1c2c(cc3oc(=O)ccc13)OC(C)(C)C=C2")
"inactive"
>>> class_name("COc1ccc2nc3cc([N+](=O)[O-])ccc3c(Nc3ccc(S(=O)(=O)NC(C)=O)cc3)c2c1")
"inactive"
>>> class_name("O=S(=O)(O)c1ccc(/N=N\\c2c(O)ccc3cc(Br)ccc23)cc1")
"inactive"
>>> class_name("C/C(=N\\NC(=S)N1CCOCC1)c1nc2cccnc2[nH]1")
"inactive"
>>> class_name("Cc1ccsc1/C=N/Nc1ncccn1")
"inactive"
>>> class_name("COC(=O)N1CC2C3C4CC(C(c5ccccc5)=C4c4ccccc4)C3C21 (stereo unspecified)")
"inactive"
>>> class_name("O=S(=O)(O)c1cc(S(=O)(=O)O)c2c(Nc3ccnc4ccccc34)ccc(S(=O)(=O)O)c2c1")
"inactive"
>>> class_name("C[C@H](N)C(=O)Nc1ccc(-c2nc3ccccc3s2)cc1Cl")
"inactive"
>>> class_name("CCOC(=O)c1ccc(Nc2cnc3cc(C(F)(F)F)ccc3n2)cc1")
"inactive"
>>> class_name("Cc1ccc2nc(-n3c(/C=C/c4ccccc4O)nc4ccccc4c3=O)sc2c1")
"inactive"
>>> class_name("CN(CCCNC(=O)c1cn(C)c2c1ccc1ccccc12)CCCNC(=O)c1cn(C)c2c1ccc1ccccc12")
"inactive"
>>> class_name("OC(c1ccccc1)c1c(-c2ccccc2)oc(-c2ccccc2)c1C(O)c1ccccc1 (stereo unspecified)")
"inactive"
>>> class_name("C1CN1c1nc(N2CC2)nc(N2CC2)n1")
"inactive"
>>> class_name("CCOC(=O)c1cc(-c2ccc(OC)cc2)c([N+](=O)[O-])[nH]1")
"inactive"
>>> class_name("CCC(/C=C/c1ccccc1)=N\\Nc1ccc(Cl)c(Cl)c1")
"inactive"
>>> class_name("O=c1ccn(C2OC(CN(O)CCC3C(CO)OC(n4ccc(=O)[nH]c4=O)C3O)C(O)C2O)c(=O)[nH]1 (stereo unspecified)")
"inactive"
>>> class_name("CN1CCc2cc(N)cc3c2C1Cc1ccc(O)c(O)c1-3 (stereo unspecified)")
"inactive"
>>> class_name("CCCCN(Cc1ccccc1)/C(=N/C#N)N(Cc1ccccc1)Cc1ccccc1")
"inactive"
>>> class_name("Clc1ccc(/C=N/c2ccc(Oc3ccc(Cl)cc3)c(Cl)c2)cc1")
"inactive"
>>> class_name("O=C1CN(c2cccc(C(F)(F)F)c2)C(=O)CN1CCN1CC(=O)N(c2cccc(C(F)(F)F)c2)CC1=O")
"inactive"
>>> class_name("CC(C)C(=O)[C@@]1(C)SC[C@H]2CCN=C21")
"inactive"
>>> class_name("CN1CCN(c2n[nH]c(=O)c3c2nnn3Cc2ccccc2)CC1")
"active"
>>> class_name("CCC(=O)c1cc(C(=O)C(=S)SC)cc(C(=O)C(=S)SC)c1")
"inactive"
>>> class_name("COC(=O)C(CBr)CBr")
"inactive"
>>> class_name("CCC/C(=N\\NC(=S)N1CCN(c2ccccn2)CC1)c1ccccn1")
"active"
>>> class_name("O=C(/C=C/c1ccc(O)c(O)c1)OCc1ccccc1 [BENZYL CAFFEATE]")
"inactive"
>>> class_name("N#Cc1c(Cl)c2cccnc2n2c1nc1ccccc12")
"inactive"
>>> class_name("CO/N=C(\\C)c1ccc(Nc2nc3ccccc3c3occc23)cc1")
"inactive"
>>> class_name("CC(=O)Nc1ccc(S(=O)(=O)/N=C2\\C=CC(=O)c3ccccc32)cc1")
"inactive"
>>> class_name("COC(=O)C1CCOC(C)N1C(=O)OC(C)(C)C (stereo unspecified)")
"inactive"
>>> class_name("CC[C@]12C=CCN3CCC4(c5cc(/N=N/c6ccc([N+](=O)[O-])cc6)c(OC)cc5N(C)[C@H]4[C@@](O)(C(=O)OC)[C@@H]1OC(C)=O)[C@@H]32 (stereo partly specified)")
"inactive"
>>> class_name("Cn1cc(-c2ccc(CCOC3CCCCO3)cc2)c2c(C#N)cccc21 (stereo unspecified)")
"inactive"
>>> class_name("COc1c(O)cc2oc(-c3ccc(O)cc3)cc(=O)c2c1O")
"inactive"
>>> class_name("O=C(c1ccccc1)N1C(=S)NC(=N/c2ccccc2)/C1=N\\c1ccccc1")
"inactive"

----------
# Test system: NCI-H460
# ASSAY_INFO: NCI tumour cell line growth inhibition, 48 h
Active and inactive are the calls of the source. Cut-off read from the data, not from the text of the source: active = GI50 up to about 1.1 µM and inactive = higher.
PARAMETER_MEASURED: GI50

>>> result_value("COC(=O)C1CCOC(C)N1C(=O)OC(C)(C)C (stereo not given)")
"> 100 µM (inactive)"
>>> result_value("COc1ccc(C(=O)N(C(=O)N2CCN(c3ccccc3)CC2)S(=O)(=O)c2ccccc2)cc1")
"32.4 µM (inactive)"
>>> result_value("CC1(C)C2CCC1(C)C(NC(=O)COCCOCC(N)=O)C2 (stereo not given)")
"> 100 µM (inactive)"
>>> result_value("CCC(=O)c1c(NOC2OC(COC(C)=O)C(OC(C)=O)C(OC(C)=O)C2OC(C)=O)nc(OC)n(C)c1=O (stereo not given)")
"> 100 µM (inactive)"
>>> result_value("COC(=O)[C@H]1C=C[C@@H](C)n2c(=O)c3ccccc3c(=O)n21")
"> 100 µM (inactive)"

----------
# System: RXF 393
# ASSAY_INFO: NCI tumour cell line growth inhibition, 48 h
The source made the active and inactive calls. Rule as the data show it: active = GI50 up to about 1.1 µM and inactive = higher.
Labels: y for active, n for inactive

>>> class_name("COC(CN(C)C(=O)C(C)NC(=O)c1ccccc1)OC (stereo unspecified)")
"n"
>>> class_name("OCC1OC(c2n[nH]c3c(O)ncnc23)C(O)C1O (stereo unspecified)")
"n"
>>> class_name("COC(=O)C1CCOC(C)N1C(=O)OC(C)(C)C (stereo unspecified)")
"n"
>>> class_name("c1ccc(COc2ccc(C[P+](c3ccccc3)(c3ccccc3)c3ccccc3)cc2)cc1")
"y"
>>> class_name("COC1(OC)C(/C(N)=C\\O)=NC(C)(C)N1O")
"n"
>>> class_name("CCCCCCCCCCCC(=O)OC[C@@H](C[As](=O)(O)O)OC(=O)CCCCCCCCCCC")
"n"
>>> class_name("CC(=N/NC(N)=S)/C(C)=N/NC(N)=S")
"n"
>>> class_name("CC(/C=N/N(C)C1=NCCCCN1)=N/N(C)C1=NCCCCN1")
"n"
>>> class_name("CC(=O)c1[nH]c(NC(C)C)c(C(=S)Nc2ccccc2)c1N")
"n"
>>> class_name("CCCCN(Cc1ccccc1)/C(=N/C#N)N(Cc1ccccc1)Cc1ccccc1")
"n"
>>> class_name("C=C(Cl)C(Cl)(CBr)CCC(Br)C(C)(C)Br (stereo unspecified)")
"n"

----------
# System: OVCAR-8
# ASSAY_INFO: NCI tumour cell line growth inhibition, 48 h
The source made the active and inactive calls. No stated cut-off is given here; in the data, active = GI50 up to about 1.1 µM and inactive = higher.
Outcome codes: Y = active, N = inactive

>>> class_name("CC(=O)OC12c3ccccc3-c3ccccc3C1C1C(=O)N(C)C(=O)C12Cl (stereo not given)")
"N"
>>> class_name("Nn1c(SCC(=O)O)nc2ccccc2c1=O")
"N"
>>> class_name("COc1cc2c(c(OC)c1OC)-c1ccc(SC)c(=O)cc1[C@@H](NC(=O)c1cccc([N+](=O)[O-])c1)CC2")
"Y"
>>> class_name("COC(=O)C1CCOC(C)N1C(=O)OC(C)(C)C (stereo not given)")
"N"
>>> class_name("CN1CCc2cc(N)cc3c2C1Cc1ccc(O)c(O)c1-3 (stereo not given)")
"N"
>>> class_name("COC1/C=C/C=C(/C)Cc2cc(O)c(Cl)c(c2)N(C)C(=O)CC(OC(=O)C(C)C)C2(C)OC2C(C)C2CC1(O)NC(=O)O2 (stereo not given)")
"Y"
>>> class_name("O=C(O)CCc1ccc2c(c1)CC1(Cc3ccccc3C1)C2")
"N"
>>> class_name("O=c1nc2ccc3sc4ccccc4c(=O)c3n2c(=O)[nH]1")
"N"
>>> class_name("CCOC(=O)c1sc2nc(SC)nc(Nc3ccc(OC)c(OC)c3)c2c1N")
"N"
>>> class_name("COC(=O)c1cccc2cccc(C(=O)Nc3ccc(C)cc3C)c12")
"N"
